Numbers sourced from paper PMC9312114.

Measured cytotoxicity against human HeLa cells, listed per entry for reference.
# System: HeLa cells
# test-description: Cytotoxicity assay (LDH release)
# Assay type: cell-based, human
# details: 50 µM, 24 h, LDH release, Triton X-100 = 100%
reported-property: cytotoxicity against human HeLa cells (%)

{"compound": "Cn1cc(NC(=O)c2cc(NC(=O)c3cc4ccccc4oc3=O)cn2C)cc1C(=O)NCCCN1CCOCC1 [MGB16]", "reported": 12.7}
{"compound": "CN(C)CCCNC(=O)c1cc(NC(=O)c2cc(NC(=O)c3ccc(/C=C/c4ccccc4)cc3)cn2C)cn1C [MGB30]", "reported": 34}
{"compound": "CN(C)CCCNC(=O)c1cc(NC(=O)c2cc(NC(=O)c3ccc(C#Cc4ccccc4)cc3)cn2C)cn1C [MGB26]", "reported": 33.5}
{"compound": "CN(C)CCCNC(=O)c1cc(NC(=O)c2cc(NC(=O)c3cc(NC(=O)c4nccn4C)cn3C)cn2C)cn1C [MGB5]", "reported": 10.9}

====

# Tested on: HeLa cells
# test-description: Cytotoxicity assay (LDH release)
# Assay type: cell-based, human
# details: 50 µM, 24 h, LDH release, Triton X-100 = 100%
Mark MET only when cytotoxicity against human HeLa cells stays strictly below 20%. Values equal to the cut-off are NOT MET.

{"compound": "Cn1cc(NC(=O)c2cc(NC(=O)c3ccc(C#Cc4ccccc4)cc3)cn2C)cc1C(=O)NCCCN1CCOCC1 [MGB28]", "assigned-category": "MET"}
{"compound": "CN(C)CCCNC(=O)c1cc(NC(=O)c2cc(NC(=O)c3cc(NC(=O)c4cscn4)cn3C)cn2C)cn1C [MGB6]", "assigned-category": "MET"}
{"compound": "Cn1cc(NC(=O)c2cc(NC(=O)CCSc3ccc4ccccc4c3)cn2C)cc1C(=O)NCCCN1CCOCC1 [MGB20]", "assigned-category": "NOT MET"}
{"compound": "Cn1cc(NC(=O)c2cc(NC(=O)c3ccc(/C=C/c4ccccc4)cc3)cn2C)cc1C(=O)NCCCN1CCOCC1 [MGB32]", "assigned-category": "NOT MET"}
{"compound": "Cc1ccc(CSCCC(=O)Nc2cc(C(=O)Nc3cc(C(=O)NCCCN(C)C)n(C)c3)n(C)c2)cc1 [MGB22]", "assigned-category": "NOT MET"}
{"compound": "CC(C)c1sc(NC(=O)c2cc(NC(=O)c3cc(NC(=O)c4nccn4C)cn3C)cn2C)nc1C(=O)NCCCN(C)C [MGB3]", "assigned-category": "MET"}
{"compound": "CC(C)c1sc(NC(=O)c2cc(NC(=O)c3cc(NC(=O)c4cscn4)cn3C)cn2C)nc1C(=O)NCCCN(C)C [MGB4]", "assigned-category": "MET"}

====

# Tested on: Acanthamoeba castellanii
# test-description: Amoebicidal assay
# Type: cell-based, Acanthamoeba castellanii genotype T4 (ATCC 50492)
# details: Acanthamoeba castellanii; 50 µM, 24 h, negative control 100%; read-out: amoeba viability

{"chemical-string": "CN(C)CCCNC(=O)c1cc(NC(=O)c2cc(NC(=O)c3ccc(/C=C/c4ccccc4)cc3)cn2C)cn1C", "experimental-system": "Acanthamoeba castellanii", "viability at 50 µM": "63.4%"}
{"chemical-string": "Cc1ccc(CSCCC(=O)Nc2cc(C(=O)Nc3cc(C(=O)NCCCN(C)C)n(C)c3)n(C)c2)cc1", "experimental-system": "Acanthamoeba castellanii", "viability at 50 µM": "66.5%"}
{"chemical-string": "CN(C)CCCNC(=O)c1cc(NC(=O)c2cc(NC(=O)c3cc(NC(=O)c4cscn4)cn3C)cn2C)cn1C", "experimental-system": "Acanthamoeba castellanii", "viability at 50 µM": "59.5%"}
{"chemical-string": "Cn1cc(NC(=O)c2cc(NC(=O)c3ccc(C#Cc4ccccc4)cc3)cn2C)cc1C(=O)NCCCN1CCOCC1", "experimental-system": "Acanthamoeba castellanii", "viability at 50 µM": "97.2%"}
{"chemical-string": "Cn1cc(NC(=O)c2cc(NC(=O)CCSc3ccc4ccccc4c3)cn2C)cc1C(=O)NCCCN1CCOCC1", "experimental-system": "Acanthamoeba castellanii", "viability at 50 µM": "81.9%"}
{"chemical-string": "CC(C)c1sc(NC(=O)c2cc(NC(=O)c3cc(NC(=O)c4cscn4)cn3C)cn2C)nc1C(=O)NCCCN(C)C", "experimental-system": "Acanthamoeba castellanii", "viability at 50 µM": "95.2%"}
{"chemical-string": "Cn1cc(NC(=O)c2cc(NC(=O)c3cc4ccccc4oc3=O)cn2C)cc1C(=O)NCCCN1CCOCC1", "experimental-system": "Acanthamoeba castellanii", "viability at 50 µM": "43.2%"}
{"chemical-string": "CN(C)CCCNC(=O)c1cc(NC(=O)c2cc(NC(=O)c3ccc(C#Cc4ccccc4)cc3)cn2C)cn1C", "experimental-system": "Acanthamoeba castellanii", "viability at 50 µM": "82.7%"}
{"chemical-string": "CC(C)c1sc(NC(=O)c2cc(NC(=O)c3cc(NC(=O)c4nccn4C)cn3C)cn2C)nc1C(=O)NCCCN(C)C", "experimental-system": "Acanthamoeba castellanii", "viability at 50 µM": "76.2%"}
{"chemical-string": "CN(C)CCCNC(=O)c1cc(NC(=O)c2cc(NC(=O)c3cc(NC(=O)c4nccn4C)cn3C)cn2C)cn1C", "experimental-system": "Acanthamoeba castellanii", "viability at 50 µM": "98.4%"}
{"chemical-string": "Cn1cc(NC(=O)c2cc(NC(=O)c3ccc(/C=C/c4ccccc4)cc3)cn2C)cc1C(=O)NCCCN1CCOCC1", "experimental-system": "Acanthamoeba castellanii", "viability at 50 µM": "80.1%"}

====

# Tested on: Acanthamoeba castellanii on HeLa cell monolayers
# test-description: Cytopathogenicity assay (amoeba-mediated host-cell death)
# Assay type: cell-based
# details: amoebae pretreated with 50 µM for 2 h, then 24 h on HeLa cells, negative control 100%
# Lookup of reported amoeba-mediated host-cell death (cytotoxic activity due to amoeba) keyed by entry
reported-property: amoeba-mediated host-cell death (cytotoxic activity due to amoeba) (%)

{"compound": "Cn1cc(NC(=O)c2cc(NC(=O)c3ccc(C#Cc4ccccc4)cc3)cn2C)cc1C(=O)NCCCN1CCOCC1 [MGB28]", "readout-unit": "%", "reported": 91.9}
{"compound": "Cn1cc(NC(=O)c2cc(NC(=O)CCSc3ccc4ccccc4c3)cn2C)cc1C(=O)NCCCN1CCOCC1 [MGB20]", "readout-unit": "%", "reported": 83.2}
{"compound": "CC(C)c1sc(NC(=O)c2cc(NC(=O)c3cc(NC(=O)c4nccn4C)cn3C)cn2C)nc1C(=O)NCCCN(C)C [MGB3]", "readout-unit": "%", "reported": 41.5}
{"compound": "Cc1ccc(CSCCC(=O)Nc2cc(C(=O)Nc3cc(C(=O)NCCCN(C)C)n(C)c3)n(C)c2)cc1 [MGB22]", "readout-unit": "%", "reported": 71.5}
{"compound": "CN(C)CCCNC(=O)c1cc(NC(=O)c2cc(NC(=O)c3cc(NC(=O)c4cscn4)cn3C)cn2C)cn1C [MGB6]", "readout-unit": "%", "reported": 49.5}
{"compound": "CN(C)CCCNC(=O)c1cc(NC(=O)c2cc(NC(=O)c3ccc(/C=C/c4ccccc4)cc3)cn2C)cn1C [MGB30]", "readout-unit": "%", "reported": 87.3}
{"compound": "CC(C)c1sc(NC(=O)c2cc(NC(=O)c3cc(NC(=O)c4cscn4)cn3C)cn2C)nc1C(=O)NCCCN(C)C [MGB4]", "readout-unit": "%", "reported": 49.4}
{"compound": "CN(C)CCCNC(=O)c1cc(NC(=O)c2cc(NC(=O)c3cc(NC(=O)c4nccn4C)cn3C)cn2C)cn1C [MGB5]", "readout-unit": "%", "reported": 57.8}
{"compound": "Cn1cc(NC(=O)c2cc(NC(=O)c3ccc(/C=C/c4ccccc4)cc3)cn2C)cc1C(=O)NCCCN1CCOCC1 [MGB32]", "readout-unit": "%", "reported": 96.3}
{"compound": "CN(C)CCCNC(=O)c1cc(NC(=O)c2cc(NC(=O)c3ccc(C#Cc4ccccc4)cc3)cn2C)cn1C [MGB26]", "readout-unit": "%", "reported": 67.3}
{"compound": "Cn1cc(NC(=O)c2cc(NC(=O)c3cc4ccccc4oc3=O)cn2C)cc1C(=O)NCCCN1CCOCC1 [MGB16]", "readout-unit": "%", "reported": 88.6}

====

# System: Acanthamoeba castellanii
# test-description: Encystation assay
# Assay type: cell-based
# details: 16% glucose, 48 h, negative control 100% cysts

{"chemical-string": "CN(C)CCCNC(=O)c1cc(NC(=O)c2cc(NC(=O)c3cc(NC(=O)c4nccn4C)cn3C)cn2C)cn1C", "cysts present [%]": 48.3}
{"chemical-string": "Cn1cc(NC(=O)c2cc(NC(=O)c3ccc(/C=C/c4ccccc4)cc3)cn2C)cc1C(=O)NCCCN1CCOCC1", "cysts present [%]": 41.5}
{"chemical-string": "CC(C)c1sc(NC(=O)c2cc(NC(=O)c3cc(NC(=O)c4cscn4)cn3C)cn2C)nc1C(=O)NCCCN(C)C", "cysts present [%]": 82.3}
{"chemical-string": "Cn1cc(NC(=O)c2cc(NC(=O)CCSc3ccc4ccccc4c3)cn2C)cc1C(=O)NCCCN1CCOCC1", "cysts present [%]": 39}
{"chemical-string": "CN(C)CCCNC(=O)c1cc(NC(=O)c2cc(NC(=O)c3cc(NC(=O)c4cscn4)cn3C)cn2C)cn1C", "cysts present [%]": 46.3}
{"chemical-string": "CN(C)CCCNC(=O)c1cc(NC(=O)c2cc(NC(=O)c3ccc(/C=C/c4ccccc4)cc3)cn2C)cn1C", "cysts present [%]": 27.8}
{"chemical-string": "Cn1cc(NC(=O)c2cc(NC(=O)c3ccc(C#Cc4ccccc4)cc3)cn2C)cc1C(=O)NCCCN1CCOCC1", "cysts present [%]": 29.6}
{"chemical-string": "Cc1ccc(CSCCC(=O)Nc2cc(C(=O)Nc3cc(C(=O)NCCCN(C)C)n(C)c3)n(C)c2)cc1", "cysts present [%]": 30.3}
{"chemical-string": "CC(C)c1sc(NC(=O)c2cc(NC(=O)c3cc(NC(=O)c4nccn4C)cn3C)cn2C)nc1C(=O)NCCCN(C)C", "cysts present [%]": 83.5}
{"chemical-string": "CN(C)CCCNC(=O)c1cc(NC(=O)c2cc(NC(=O)c3ccc(C#Cc4ccccc4)cc3)cn2C)cn1C", "cysts present [%]": 52.3}
{"chemical-string": "Cn1cc(NC(=O)c2cc(NC(=O)c3cc4ccccc4oc3=O)cn2C)cc1C(=O)NCCCN1CCOCC1", "cysts present [%]": 45.6}
